So I've got Ki readings for Amyloid-beta precursor protein (Homo sapiens, UniProt P05067), take a look.
Give just the number in µM; leave the unit off.

Worked cases, answers included:
compound=CN(C)c1ccc(/C=C/c2ccc(OCC(CO)CO)cc2)cc1 assay_system="Amyloid-beta precursor protein (Homo sapiens, UniProt P05067)" measured_parameter=Ki measured_value=0.038
compound=Nc1ccc(/C=C/c2ccc(O)cc2)cc1 assay_system="Amyloid-beta precursor protein (Homo sapiens, UniProt P05067)" measured_parameter=Ki measured_value=0.095
compound="Nc1ccc(/C=C/c2ccc(OCC(CO)CF)cc2)cc1 (stereo not given)" assay_system="Amyloid-beta precursor protein (Homo sapiens, UniProt P05067)" measured_parameter=Ki measured_value=0.015

Look up and report Ki, with Amyloid-beta precursor protein (Homo sapiens, UniProt P05067) as system, for CN(C)c1ccc(/C=C/c2ccc(OCC(CO)Cc3ccc(Br)cc3)cc2)cc1 (stereo not given) 0.08

Look up and report Ki, with Amyloid-beta precursor protein (Homo sapiens, UniProt P05067) as system, for CN(C)c1ccc(/C=C/c2ccc(OCC3COC(C)(C)OC3)cc2)cc1 0.059
